The following sequences are listed with their measured log2 fold change of degron read counts values.
Target: T1, CRBN, Q96SW2;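 further: pooled lentiviral library of zinc finger degron-EGFP fusions in mCherry-positive Jurkat cells, FACS-sorted after compound exposure, with degron abundance counted by next-generation sequencing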
T1 chain: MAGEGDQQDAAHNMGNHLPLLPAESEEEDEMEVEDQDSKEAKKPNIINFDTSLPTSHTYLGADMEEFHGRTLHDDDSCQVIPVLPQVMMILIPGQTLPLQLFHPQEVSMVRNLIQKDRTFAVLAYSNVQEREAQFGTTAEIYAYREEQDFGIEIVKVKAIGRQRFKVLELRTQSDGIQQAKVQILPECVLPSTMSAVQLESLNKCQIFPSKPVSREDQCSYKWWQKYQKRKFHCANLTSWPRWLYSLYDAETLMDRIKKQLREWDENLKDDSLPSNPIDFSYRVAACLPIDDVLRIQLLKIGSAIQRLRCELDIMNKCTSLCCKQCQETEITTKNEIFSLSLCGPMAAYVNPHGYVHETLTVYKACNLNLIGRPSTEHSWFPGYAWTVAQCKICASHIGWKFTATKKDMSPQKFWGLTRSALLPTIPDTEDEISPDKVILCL
Assay: log2 fold change of degron read counts, EGFP-low vs EGFP+ sorted cells (limma voom), compound-induced degradation; higher = more compound-induced degradation of the degron-EGFP fusion; degrons are variants of IKZF1/3 zinc finger 2; compound dose not given here
Conditions: Jurkat; 18 h; compound: compound 22 (5-morpholino-thalidomide)
Whole data set: some 8,300 sequences, median “log2 fold change of degron read counts, EGFP-low vs EGFP+ sorted cells (limma voom), compound-induced degradation” near -1.1, cut for the highest 2% near 3.2. For the sample, the highest values were picked, then their nearest neighbours and some sequences at random.
Just the number, please, no unit after it.

FECEQCGADFTQKGNLLRHIKL [46F_47E_49E_50Q_52G_53A_54D_55F_67L_, Q9UKT9]: -4.35
FTCEICGHIFTQKGNLLRHIKL [46F_47T_49E_50I_52G_53H_54I_55F_67L_, Q9UKT9]: -3.7
FMCPICGAWFTQKGNLLRHIKL [46F_47M_49P_50I_52G_53A_54W_55F_67L_, Q9UKT9]: -0.611

Kindly note the recorded log2 fold change of degron read counts for LTCPICGFYCTQKGNLLRHIKL [46L_47T_49P_50I_52G_53F_54Y_55C_67L_, Q9UKT9] , which is 2.58

Kindly note the recorded log2 fold change of degron read counts for LDCPICGFRCTQKGNLLRHIKL [46L_47D_49P_50I_52G_53F_54R_55C_67L_, Q9UKT9] , which is 0.931

Kindly note the recorded log2 fold change of degron read counts for LLCPICGFYCTQKGNLLRHIKL [46L_47L_49P_50I_52G_53F_54Y_55C_67L_, Q9UKT9] , which is 0.574

Kindly note the recorded log2 fold change of degron read counts for LYCPICGFYCTQKGNLLRHIKL [46L_47Y_49P_50I_52G_53F_54Y_55C_67L_, Q9UKT9] , which is 3.11
